EXPERIMENTAL_TARGET: Glutamate NMDA receptor
RUN_DESCRIPTION: Ability to enhance [3H]MK-801 binding to NMDA receptors in rat forebrain membranes was calculated with respect to spermine
Field: label. Allowed values: Yes (EC50 < 40 µM) or No (EC50 >= 40 µM).

## Input Say whether its EC50 is strictly beneath 40 µM. Entry: NCCCC(=O)N1CCN(C(=O)CCCN)CC1
## Output No

## Input Take the molecule CN(C)CCN1CCN(CCN(C)C)CC1 and say whether its EC50 is less than 40 µM.
## Output No

## Input Identify whether the molecule CNCCCN1CCN(CCCNC)CC1 records EC50 below 40 µM.
## Output Yes
